# assayComment: qHTS to identify inhibitors of the type 1 interferon - major histocompatibility complex class I in skeletal muscle: primary screen against the NCATS Mechanism Interrogation Plate v5.0 (MIPE) Libary (AID 1347411); further: nearly all actives have a fitted effect of over 65% in size
# studyConditions: iHSKM cells + IFN-b, HiBiT-tagged MHC-I luminescence, 24 h; series mostly up to 45.8 µM
# Source text: Assay Submitter (PI): Travis B. Kinder Ph.D. & James Inglese Ph.D. Assay Development and Screening Technology Laboratory (ADST) National Center for Advancing Translational Sciences (NCATS), Rockville, MD National Institute of Health (NIH), Bethesda, Maryland […] 7; Detector; 5 sec; Measure luminescence with ViewLux 1430 Ultra HTS (Perkin Elmer). […]
Inconclusive results are not listed. Active and inactive are the calls of the source. The call rests on the fitted dose curve; in most records, active means well fitted inhibition curve with a large enough effect; inconclusive means small, poorly fitted or top-dose-only effect; inactive means no such curve, though single readings can be large or run the other way.
Outcome codes: T for active, F for inactive

| compound | className |
| --- | --- |
| CC(=O)CC(c1ccccc1)c1c(O)c2ccccc2oc1=O (stereo not drawn) | T |
| CCN[C@H]1C[C@H](C)S(=O)(=O)c2sc(S(N)(=O)=O)cc21 | F |
| CC1=NN(c2ccccc2)C(=O)C1 | F |

* * *

# Test system: TAB165
# assayComment: qHTS profiling for inhibitors of Plasmodium falciparum proliferation (AID 504749); further: nearly all actives have a fitted effect of over 60% in size
# studyConditions: P. falciparum in erythrocytes, SYBR Green DNA, 72 h; series mostly up to 28.7 µM
Inconclusive results are not listed. The source made the active and inactive calls. The call rests on the fitted dose curve; in most records, active means well fitted inhibition curve with a large enough effect; inconclusive means small, poorly fitted or top-dose-only effect; inactive means flat fitted curve, though single readings scatter.
Outcome codes: active, inactive

| compound | className |
| --- | --- |
| COc1cc(NS(=O)(=O)c2ccc(N)cc2)nc(OC)n1 | inactive |
| C[C@]12C=CC(=O)C=C1CC[C@@H]1[C@@H]2C(=O)C[C@@]2(C)[C@H]1CC[C@]2(O)C(=O)CO | inactive |
| CN(CCOc1ccc(CC2SC(=O)NC2=O)cc1)c1ccccn1 (centres undefined) | inactive |
| CNS(=O)(=O)Cc1ccc2[nH]cc(CCN(C)C)c2c1 | inactive |
| Nc1ccc(S(=O)(=O)Nc2ccccn2)cc1 | inactive |
| Nc1nc(N)c2nc(CNc3ccc(C(=O)NC(CCC(=O)O)C(=O)O)cc3)cnc2n1 (centres undefined) | inactive |
| COc1ccc(C(=O)CC(=O)c2ccc(C(C)(C)C)cc2)cc1 | inactive |
| CCC(C)(C)c1ccc(CC(C)CN2C[C@@H](C)O[C@@H](C)C2)cc1 (some centres undefined) | inactive |
| COc1cnc(NS(=O)(=O)c2ccc(N)cc2)nc1 | inactive |
| S=P(N1CC1)(N1CC1)N1CC1 | inactive |
| NCCCC(O)(P(=O)(O)O)P(=O)(O)O | inactive |
| N=C(N)c1ccc(OCCCCCOc2ccc(C(=N)N)cc2)cc1 | active |
| CC(C)NCC(O)c1ccc(NS(C)(=O)=O)cc1 (centres undefined) | inactive |
| CNC(=O)c1cc(Oc2ccc(NC(=O)Nc3ccc(Cl)c(C(F)(F)F)c3)cc2)ccn1 | active |
| Cc1cccc(Nc2ccncc2S(=O)(=O)NC(=O)NC(C)C)c1 | inactive |
| O=c1cc(O)c(Cl)c[nH]1 | inactive |
| COc1c(N2CCNC(C)C2)c(F)cc2c(=O)c(C(=O)O)cn(C3CC3)c12 (centres undefined) | inactive |
| O=C(O)c1cc(=O)[nH]c(=O)[nH]1 | inactive |
| CCN(C)C(=O)Oc1cccc([C@H](C)N(C)C)c1 | inactive |
| Nc1nc(N)nc(-c2cc(Cl)ccc2Cl)n1 | inactive |
| CNCC[C@H](Oc1cccc2ccccc12)c1cccs1 | active |
| CC(=O)Oc1ccccc1C(=O)Nc1ncc([N+](=O)[O-])s1 | inactive |
| N[C@@H](C(=O)N[C@@H]1C(=O)N2C(C(=O)O)=C(Cl)CS[C@H]12)c1ccccc1 | inactive |
| CCCCCCNC(=O)n1cc(F)c(=O)[nH]c1=O | active |
| CC1=CC(=O)c2ccccc2C1=O | inactive |
| CCCc1cc(C(N)=S)ccn1 | inactive |
| O=c1oc2c(O)c(O)cc3c(=O)oc4c(O)c(O)cc1c4c23 | active |
| CN1CCN(c2c(F)cc3c(=O)c(C(=O)O)cn4c3c2OCN4C)CC1 | inactive |
| COc1ncnc(NS(=O)(=O)c2ccc(N)cc2)c1OC | inactive |

* * *

The entries below come with measured max response values attached.
# Tested on: HaCat
# assayComment: Cytotoxic Profiling of Annotated Libraries Using Quantitative High-Throughput Screening (AID 1296008); further: on the % scale 0 is the no-effect control and ±100 the full control effect; nearly all actives have a fitted effect of over 60% in size
# studyConditions: Five cell lines viability, CellTiter-Glo ATP luminescence, 48-72 h; stronger effect = lower value
Records with an inconclusive call do not appear. Active and inactive are the calls of the source. Calls come from the whole dose curve; as a rule, active = well fitted inhibition curve with a large enough effect; inconclusive = small, poorly fitted or top-dose-only effect; inactive = flat fitted curve, though single readings scatter.

| molecule | max response |
| --- | --- |
| CN1CCCC(n2nc(Cc3ccc(Cl)cc3)c3ccccc3c2=O)CC1 (stereo not drawn) | 3.73% (inactive) |
| O=S(=O)(O)CCS | -12.1% (inactive) |
| NC(=O)c1cccc(N)c1 | -6.72% (inactive) |

* * *

# assayComment: Quantitative High-Throughput drug screen in 47 multiple myeloma cell lines against the NCATS MIPE library collection: INA6_PLB cell viability assay (AID 1918965; further: nearly all actives have a fitted effect of over 55% in size)
# studyConditions: INA6 myeloma viability, CellTiter-Glo ATP luminescence, 48 h; series mostly up to 45.8 µM
# Description: PI: Beverly A. Mock Ph.D. Laboratory of Cancer Biology and Genetics, Center for Cancer Research, National Cancer Institute, National Institute of Health, Bethesda, Maryland […] 5; Detector; 425V; Luminescence; Viewlux PerkinElmer. […] 1. […] Briefly, the corresponding myeloma cell lines were screened in 1,536-well plates with 500 cells, 5-uL per well for inhibition of cell viability (assessed by measuring ATP levels with CellTiterGlo). […]
Records with an inconclusive call do not appear. Active and inactive are the calls of the source. Calls come from the whole dose curve; as a rule, active = well fitted cell-killing curve with a large enough effect; inconclusive = small, poorly fitted or top-dose-only effect, or effect the other way; inactive = no such curve, though single readings can be large or run the other way.
Outcome codes: active, inactive

| molecule | className |
| --- | --- |
| CC(C(=O)O)c1ccc2c(c1)CC(=O)c1ccccc1S2 (centres undefined) | inactive |
| Cc1nnc(C(=O)NC(C)(C)c2nc(C(=O)NCc3ccc(F)cc3)c(O)c(=O)n2C)o1 | inactive |
| CCn1cc(C(=O)O)c(=O)c2cc(F)c(N3CCNCC3)cc21 | inactive |
| Cc1nnc(NS(=O)(=O)c2ccc(N)cc2)s1 | active |

* * *

# System: TAB109
# assayComment: qHTS profiling for inhibitors of Plasmodium falciparum proliferation (AID 504749); further: nearly all actives have a fitted effect of over 60% in size; further: potency means the concentration at half of the fitted maximal effect
# studyConditions: P. falciparum in erythrocytes, SYBR Green DNA, 72 h; series mostly up to 28.7 µM
Records with an inconclusive call do not appear. Activity calls are given as the source filed them. The call rests on the fitted dose curve; in most records, active means well fitted inhibition curve with a large enough effect; inconclusive means small, poorly fitted or top-dose-only effect; inactive means flat fitted curve, though single readings scatter.

| entrySmiles | system | Potency |
| --- | --- | --- |
| CC(C)(Sc1cc(C(C)(C)C)c(O)c(C(C)(C)C)c1)Sc1cc(C(C)(C)C)c(O)c(C(C)(C)C)c1 | TAB109 | inactive |
| OC(Cn1cncn1)(Cn1cncn1)c1ccc(F)cc1F | TAB109 | inactive |
| CC(C)(C#N)c1cc(Cn2cncn2)cc(C(C)(C)C#N)c1 | TAB109 | inactive |
| COc1ccc2cc3[n+](cc2c1OC)CCc1cc2c(cc1-3)OCO2 | TAB109 | 0.631 µM (active) |
| CCc1c2c(nc3ccc(OC(=O)N4CCC(N5CCCCC5)CC4)cc13)-c1cc3c(c(=O)n1C2)COC(=O)[C@]3(O)CC | TAB109 | inactive |
| N[C@@H](C(=O)N[C@@H]1C(=O)N2C(C(=O)O)=C(Cl)CS[C@H]12)c1ccccc1 | TAB109 | inactive |
| CNCC[C@H](Oc1cccc2ccccc12)c1cccs1 | TAB109 | 7.08 µM (active) |
| O=P(O)(O)C(O)(Cc1cccnc1)P(=O)(O)O | TAB109 | inactive |
| CCc1cc(C(N)=S)ccn1 | TAB109 | inactive |
| COc1ccc(-c2ccc3cc(C(=O)O)ccc3c2)cc1C12CC3CC(CC(C3)C1)C2 | TAB109 | inactive |

* * *

# System: HeLa
# assayComment: Primary qHTS to identify gynecologic anti-cancer compounds using libraries of approved drugs and bioactive compounds (AID 1345084); further: nearly all actives have a fitted effect of over 55% in size
# studyConditions: Gynecologic cancer cell panel viability, ATPlite luminescence, 48 h; series mostly up to 57.5 µM
Records with an inconclusive call do not appear. Active and inactive are the calls of the source. Calls follow the shape of the dose curve; as a rule, active = well fitted cell-killing curve with a large enough effect; inconclusive = small, poorly fitted or top-dose-only effect, or effect the other way; inactive = flat fitted curve, though single readings scatter.
Outcome codes: y (active), n (inactive)

| compound | className |
| --- | --- |
| COc1cc(NS(=O)(=O)c2ccc(N)cc2)nc(OC)n1 | n |
| CCCc1cc(C(N)=S)ccn1 | n |
| CC(C)(Sc1cc(C(C)(C)C)c(O)c(C(C)(C)C)c1)Sc1cc(C(C)(C)C)c(O)c(C(C)(C)C)c1 | n |
| COC(=O)Nc1nc2ccc(S(=O)c3ccccc3)cc2[nH]1 (configuration not stated) | y |
| CCn1cc(C(=O)O)c(=O)c2cc(F)c(N3CCNCC3)cc21 | n |
| NCCCC(O)(P(=O)(O)O)P(=O)(O)O | n |
| COc1c(N2CCNC(C)C2)c(F)cc2c(=O)c(C(=O)O)cn(C3CC3)c12 (configuration not stated) | n |
| Oc1c(Cl)cc(Cl)c2cccnc12 | n |
| CCCCc1oc2ccc(NS(C)(=O)=O)cc2c1C(=O)c1ccc(OCCCN(CCCC)CCCC)cc1 | n |
| Nc1nc(N)nc(-c2cc(Cl)ccc2Cl)n1 | n |
| Cc1oc(=O)oc1CN1CCN(c2cc3c(cc2F)c(=O)c(C(=O)O)c2n3C(C)S2)CC1 (configuration not stated) | n |
| COc1cccc(N(C)C(=S)Oc2ccc3c(c2)CCCC3)n1 | n |

Measured values drawn from PubChem BioAssay (NCATS) for this set.
